Recorded values, source patent US20150197561A1.

So I've got a bunch of binders here, and I need their pKd values.
# test.system: T1, mouse Jagged1-His (extracellular domain of mouse Jagged1, aa 1-1060, with histidine tag) (mouse, UniProt Q9QXX0 34-1060)
# T1 construct: made in insect cells; also called mJag1; Mouse Jagged 1 ECD His-tagged
# measurement.description: SPR, Biacore 2000; Jagged protein amine-coupled to CM5 chip, antibody injected 100-1.0 nM, global fit
Scale note: pKd = -log10(concentration in M).

The recorded pKd for entry antibody 133R0205 (antibody, V domains shown) VH: QVQLVESGGGVVQPGRSLRLSCAASGFTFSSYAMHWVRQAPGKGLEWVAAIYPASSNKYYADSVKGRFTISRDNSKNTLYLQMNSLRAEDTAVYYCARDKYDIPDAFDIWGQGTLVTVS VL: DIRMTQSPSSLSASVGDRVTITCRASQGISNDLAWYQQKPGKVPRLLIYATSTLQSGVPSRFSGSGSATDFTLTISSLQPEDVATYYCQQSYNAPITFGQGTRLEIK equals 8.82

The recorded pKd for entry antibody 133R0201 (antibody, V domains shown) VH: QVQLVESGGGVVQPGRSLRLSCAASGFTFSSYAMHWVRQAPGKGLEWVAAIYPDSSNKYYADSVKGRFTISRDNSKNTLYLQMNSLRAEDTAVYYCARDKYDIPDAFDIWGQGTLVTVS VL: DIRMTQSPSSLSASVGDRVTITCRASQGISNDLAWYQQKPGKVPRLLIYATSTLQSGVPSRFSGSGSATDFTLTISSLQPEDVATYYCQQSYNAPITFGQGTRLEIK equals 9.10

The measured pKd associated with antibody 133R0203 (antibody, V domains shown) VH: QVQLVESGGGVVQPGRSLRLSCAASGFTFSSYAMHWVRQAPGKGLEWVAAISPEASNKYYADSVKGRFTISRDNSKNTLYLQMNSLRAEDTAVYYCARDKYDIPDAFDIWGQGTLVTVS VL: DIRMTQSPSSLSASVGDRVTITCRASQGISNDLAWYQQKPGKVPRLLIYATSTLQSGVPSRFSGSGSATDFTLTISSLQPEDVATYYCQQSYNAPITFGQGTRLEIK reads 8.80
